Recorded values, source PubChem BioAssay AID1159580.

ASSAY PROCEDURE: chemical genetic growth profiling, strain panel (AID 1159580);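 also: tested at 20 µM; growth read once vehicle control cultures reached saturation at 30 °C; 1 = growth at the plate median or of vehicle wells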
MEASUREMENT CONDITIONS: S. cerevisiae deletion strains, growth OD, locus YML120C, strain ndi1
The campaign covered roughly 5,500 compounds. About 2,000 (36%) were called active. Not shown: some 18% with an inconclusive outcome. Rule as the data show it: active = normalized growth mostly below about 0.91 (no sharp cut-off); inconclusive = no clear call, values can overlap the other calls; inactive = mostly above about 0.92. Some of the results follow.
Possible outcomes: 1 (yes) = active, 0 (no) = inactive

COMPOUND	GROUP LABEL
COc1cc(Cc2cnc(N)nc2N)cc(OC)c1OC	0 (no)
CC[C@H]1OC(=O)[C@H](C)[C@@H](O[C@H]2C[C@@](C)(OC)[C@@H](O)[C@H](C)O2)[C@H](C)[C@@H](O[C@@H]2O[C@H](C)C[C@H](N(C)C)[C@H]2O)[C@](C)(O)C[C@@H](C)/C(=N/OCOCCOC)[C@H](C)[C@@H](O)[C@]1(C)O	0 (no)
COc1cc(OC)c2c(OC)c(-c3ccc4c(c3)OCO4)c(=O)oc2c1	0 (no)
O=c1c(O)c(-c2ccccc2)oc2ccccc12	1 (yes)
CCC[C@@H]1C[C@@H](C(=O)N[C@H]([C@H]2O[C@H](SC)[C@H](O)[C@@H](O)[C@H]2O)[C@H](C)O)N(C)C1	0 (no)
CC(C)CCCC(C)N (centres undefined)	0 (no)
O=c1c(O)c(-c2ccc(O)cc2)oc2ccccc12	1 (yes)
COc1ccc(-c2c(O)c3c(OC)c4c(cc3oc2=O)OC(C)(C)C=C4)cc1	0 (no)
O=c1c(O)c(-c2ccccc2)oc2cc(O)ccc12	1 (yes)

----------
ASSAY PROCEDURE: chemical genetic growth profiling, strain panel (AID 1159580)
MEASUREMENT CONDITIONS: S. cerevisiae deletion strains, growth OD, locus YMR125W, strain sto1, active compounds read low
Among all 5,500 compounds or so, about 2,000 (36%) were called active. Another 18% or so got no clear call; they are omitted. Some of the results follow.
ENDPOINT LABEL: normalized growth

COMPOUND	ENDPOINT LABEL	REPORTED RESULT
CCCCCCCCCCCCCCCC(=O)OC[C@H](NC(=O)C(Cl)Cl)[C@H](O)c1ccc([N+](=O)[O-])cc1	normalized growth	1.06
CC(C)c1cc2c(c(O)c1O)[C@@]1(C(=O)O)CCCC(C)(C)C1CC2 (stereo partly drawn)	normalized growth	0.827
O=C(O)CCC(=O)OC[C@@H](NC(=O)C(Cl)Cl)[C@H](O)c1ccc([N+](=O)[O-])cc1	normalized growth	0.962
O=C1c2cccc(O)c2C(=O)c2c(O)cccc21	normalized growth	0.959
CC(=O)OC[C@@]1(O)C[C@@]23CCC4c5ccoc5CC[C@]4(C)C2CC[C@@H]1C3 (stereo partly drawn)	normalized growth	0.988
CC(C)C1CCC(C(=O)N[C@@H](Cc2ccccc2)C(=O)O)CC1 (stereo partly drawn)	normalized growth	0.966
CC(=O)NC1C(O)OC(COS(=O)(=O)O)C(OC2OC(C(=O)O)C(OC3OC(CO)C(OC4OC(C(=O)O)C(O)C(O)C4OS(=O)(=O)O)C(OS(=O)(=O)O)C3NS(=O)(=O)O)C(O)C2OS(=O)(=O)O)C1O (stereo not drawn)	normalized growth	0.981
COCC1=C(C(=O)OC(C)OC(=O)OC(C)C)N2C(=O)[C@@H](NC(=O)/C(=N\OC)c3csc(N)n3)[C@H]2SC1 (stereo partly drawn)	normalized growth	0.926

----------
ASSAY PROCEDURE: chemical genetic growth profiling, strain panel (AID 1159580);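 also: tested at 20 µM; growth read once vehicle control cultures reached saturation at 30 °C; 1 = growth at the plate median or of vehicle wells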
MEASUREMENT CONDITIONS: S. cerevisiae deletion strains, growth OD, locus YLL041C, strain sdh2
Among all 5,500 compounds or so, about 2,000 (36%) were called active. Not shown: some 18% with an inconclusive outcome. No stated cut-off is given here; in the data, active means normalized growth mostly below about 0.91 (no sharp cut-off); inconclusive means no clear call, values can overlap the other calls; inactive means mostly above about 0.92. This is one part of the list.
Possible outcomes: yes (active), no (inactive)

COMPOUND	GROUP LABEL
CCCC(=O)Nc1ccc(OCC(O)CNC(C)C)c(C(C)=O)c1 (stereo not drawn)	no
O=c1c(O)c(-c2ccccc2)oc2ccc3occc3c12	no
O=C(/C=C/c1ccc(O)cc1)c1ccc(O)cc1O	no
NS(=O)(=O)c1cc2c(cc1Cl)NCNS2(=O)=O	no
CC(=O)CCCCn1c(=O)c2c(ncn2C)n(C)c1=O	no
Cn1c(=O)c2c(ncn2CCO)n(C)c1=O	no
O=C(/C=C/c1ccccc1)c1ccc(O)cc1O	yes
CCC1(C2=NCCN2)Cc2ccccc2O1 (stereo not drawn)	no
CC(NC(C)(C)C)C(=O)c1cccc(Cl)c1 (stereo not drawn)	no
CCCN(CCC)c1c([N+](=O)[O-])cc(C(F)(F)F)cc1[N+](=O)[O-]	no
COc1cc2c(cc1OC)C(C)NCC2 (stereo not drawn)	no
O=C1C=CC(=O)c2c(O)c(Cl)c(Cl)c(O)c21	yes
Cn1c(=O)[nH]c2nc[nH]c2c1=O	no
CC1(C)CC23C(=O)CCC(O)C2(C)CCC13 (stereo not drawn)	no
Cn1c(=O)c2c(ncn2C)n(C)c1=O	no
COC(=O)C[C@H]1C(C)(C)[C@@H](OC(C)=O)[C@@H]2CC3=C4CC(=O)O[C@@H](c5ccoc5)[C@]4(C)CCC3[C@@]1(C)C2=O (stereo partly drawn)	no
O=c1c(O)c(-c2ccccc2)oc2ccccc12	yes
CNC(C)[C@@H]1CC[C@@H](N)[C@@H](OC2[C@@H](N)C[C@@H](N)[C@H](OC3OC[C@](C)(O)[C@H](NC)[C@H]3O)[C@H]2O)O1 (stereo partly drawn)	no
O=C(/C=C/c1ccccc1)c1ccc(O[C@@H]2O[C@H](CO)[C@@H](O)[C@H](O)[C@H]2O)cc1O	no
C=C[C@H]1CN2CC[C@H]1C[C@H]2[C@H](O)c1ccnc2ccccc12	no
Cn1cnc2c1c(=O)[nH]c(=O)n2C	no
CO/N=C(/C(=O)NC1C(=O)N2C(C(=O)OCOC(=O)C(C)(C)C)=C(/C=C\c3scnc3C)CSC12)c1csc(N)n1 (stereo not drawn)	no
CC(=O)OC1CCC23CC1(C)CCC2C(C)(C)CC3OC(C)=O (stereo not drawn)	no

----------
ASSAY PROCEDURE: chemical genetic growth profiling, strain panel (AID 1159580);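 also: tested at 20 µM; growth read once vehicle control cultures reached saturation at 30 °C; 1 = growth at the plate median or of vehicle wells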
MEASUREMENT CONDITIONS: S. cerevisiae deletion strains, growth OD, locus YOL136C, strain PFK27, active compounds read low
Among all 5,500 compounds or so, about 2,000 (36%) were called active. Inconclusive results (about 18%) are left out. The list shows a part of the results.
One threshold, 0.9, splits the recorded normalized growth values: lower ones are condition met, equal or higher ones are condition not met.

COMPOUND	GROUP LABEL
COc1ccc(Oc2ccc([N+](=O)[O-])cc2C(=O)O/N=C(/N)c2ccc(C(F)(F)F)cc2)cc1	condition not met
COc1cc(C2SCCS2)cc(Br)c1OC(=O)NC(=O)c1c(Cl)cccc1Cl	condition not met
CCOC(=O)c1ccc(N=Cc2cc(Cl)cc(Cl)c2O)cc1	condition met
N#CC(C(=O)Nc1cccc(C(F)(F)F)c1)C(=S)Nc1ccccc1Cl (stereo unspecified)	condition not met
Cc1cc2nc3c(Cl)c(O)c4ccccc4c3nc2cc1C	condition met
Cc1cc(C)c2cc(C(=O)NCCNc3ccc(C(F)(F)F)cn3)[nH]c2c1	condition met
CC(C)c1cccc(C(C)C)c1OC(=O)NC(=O)c1c(Cl)cccc1Cl	condition not met
CC1SC(c2cccnc2)N(c2ccc(F)cc2F)C1=O (stereo unspecified)	condition not met
Cn1cc(Br)c(-c2cccc(NS(=O)(=O)c3ccc(Cl)cc3)c2)n1	condition not met
Cc1cc(N=Cc2cc(Cl)cc(Cl)c2O)no1	condition met
CC(C)Sc1c(Cl)cccc1NC(=O)Nc1cccc(C(F)(F)F)c1	condition not met
COC(=S)Nc1cc(Cl)cc(Cl)c1	condition met
CC(C)OC(=O)Nc1cc(Cl)cc(Cl)c1	condition met
CC(C)Sc1c(Cl)cccc1NC(=O)Nc1ccccc1	condition met

----------
ASSAY PROCEDURE: chemical genetic growth profiling, strain panel (AID 1159580);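 also: tested at 20 µM; growth read once vehicle control cultures reached saturation at 30 °C; 1 = growth at the plate median or of vehicle wells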
MEASUREMENT CONDITIONS: S. cerevisiae deletion strains, growth OD, locus YOR083W, strain WHI5
Out of some 5,500 compounds screened, about 2,000 (36%) were called active. Another 18% or so got no clear call; they are omitted. Rule as the data show it: active = normalized growth mostly below about 0.91 (no sharp cut-off); inconclusive = no clear call, values can overlap the other calls; inactive = mostly above about 0.92. Some of the results follow.
Labels: t (active), f (inactive)

COMPOUND	GROUP LABEL
CC(C)C1CCC(C(=O)N[C@@H](Cc2ccccc2)C(=O)O)CC1 (stereo partly specified)	f
COc1ccccc1OCC(O)COC(N)=O (stereo unspecified)	f
O=C(O)C1=C(CSc2nnnn2CS(=O)(=O)O)CS[C@@H]2C(NC(=O)[C@H](O)c3ccccc3)C(=O)N12 (stereo partly specified)	f
CN1CCCCC1c1ccc(-c2cccnc2)nc1 (stereo unspecified)	f
CC(=O)Nc1c(I)cc(I)c(C(=O)O)c1I	f
O=c1c(O)cccc2cc(O)c(O)c(O)c12	t
O=C(O)CC[N+](=O)[O-]	f
Cn1cnc2c1c(=O)[nH]c(=O)n2C	f
COc1cc(O)ccc1C(C)=O	f
O=c1c(O)c(-c2ccccc2)oc2cccc(O)c12	t
Cn1c(=O)[nH]c2nc[nH]c2c1=O	f
O=C1C=CC(=O)c2c(O)c(Cl)c(Cl)c(O)c21	t
O=C(Nc1ccc([N+](=O)[O-])cc1Cl)c1cc(Cl)ccc1O	t
COc1ccc(CC(=O)c2ccc(O)cc2O)cc1	f
O=C(CCc1ccc(O)cc1)c1c(O)cc(O)cc1O	f
COC(=O)C[C@H]1C(C)(C)[C@@H](OC(C)=O)[C@@H]2CC3=C4CC(=O)O[C@@H](c5ccoc5)[C@]4(C)CCC3[C@@]1(C)C2=O (stereo partly specified)	f
